target: NEDD8-conjugating enzyme Ubc12 (Homo sapiens) + NEDD8-activating enzyme E1 regulatory subunit (Homo sapiens) (UniProt P61081+Q13564); experiment: inhibitors of CUL1 neddylation, potency, dose response, biochemical, TR-FRET (AID 652247); settings: in vitro CUL1 neddylation
Sequence (P61081 whole entry, looked up): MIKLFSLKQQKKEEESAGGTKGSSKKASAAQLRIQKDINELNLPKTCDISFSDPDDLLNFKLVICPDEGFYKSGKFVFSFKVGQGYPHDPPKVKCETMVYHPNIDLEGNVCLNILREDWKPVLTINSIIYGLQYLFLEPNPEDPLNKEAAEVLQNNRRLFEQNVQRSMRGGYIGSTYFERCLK
Sequence (Q13564 whole entry, looked up): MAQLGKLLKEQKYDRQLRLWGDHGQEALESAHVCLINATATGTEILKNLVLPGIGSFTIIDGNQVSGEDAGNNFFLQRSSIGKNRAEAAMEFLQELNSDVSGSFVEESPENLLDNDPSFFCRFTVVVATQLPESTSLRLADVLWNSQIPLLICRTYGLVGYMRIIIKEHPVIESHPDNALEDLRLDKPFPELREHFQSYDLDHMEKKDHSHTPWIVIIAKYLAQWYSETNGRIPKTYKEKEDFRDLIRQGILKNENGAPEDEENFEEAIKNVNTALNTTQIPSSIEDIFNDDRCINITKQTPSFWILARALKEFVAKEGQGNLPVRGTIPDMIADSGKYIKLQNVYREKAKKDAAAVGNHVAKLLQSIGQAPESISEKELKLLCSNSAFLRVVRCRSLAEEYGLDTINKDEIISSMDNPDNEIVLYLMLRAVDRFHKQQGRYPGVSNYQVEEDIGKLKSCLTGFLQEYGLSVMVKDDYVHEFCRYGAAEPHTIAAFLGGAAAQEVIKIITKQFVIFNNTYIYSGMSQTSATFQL
Calls of active or inactive are those of the source. The rule behind the calls is not given here.
Classes to choose from: True (active), False (inactive)

Please review the following examples before continuing.
O=C(Nc1ccc2c(c1)OCO2)c1cc(-c2ccc(O)cc2)on1; False
Cc1ccc2c(c1)COc1c3ccc(C(=O)NCCO)cc3nn1-2; False
COc1ccc(Cl)cc1NC(=O)Cn1nnc(C(=O)NCc2ccc3c(c2)OCO3)c1N; True
O=c1c[n+]([O-])c2ccccc2n1OCc1c(F)cccc1F; False

// outcome(item) with item = `O=C(N/N=C/c1ccc2cccnc2c1)c1nc2ccccc2c(=O)[nH]1`
False

Record request — test call for `CCN(CC)CCNC(=O)Cn1c(-c2ccccn2)nc2ccccc21`
False

Per the records of this test, what outcome belongs to `CCOc1ccc(C(=O)N/N=C/c2ccc(-c3ccc(S(=O)(=O)Nc4ncccn4)cc3)o2)cc1` ?
False

Dear colleague, could you share the recorded outcome for COC(=O)C1=C(C)NC2=C(C(=O)CCC2)C1c1ccc(-c2ccsc2C(=O)OC)o1 (stereo not given) when you have a moment?
False

What did this assay record as the result for `CCN1CCN(C(=O)c2ccc3nc(-c4ccccc4)c(-c4ccccc4)nc3c2)CC1` ?
False

Name the outcome recorded for `COc1ccccc1N1CCN(C(=O)c2cc3c(=O)n4cccc(C)c4nc3s2)CC1` in the assay.
False
